test: yeast display, Sf9 membrane polyspecificity reagent, FACS + sequencing; frameworks hold sequencing errors

>  <polymer-sequence>
QVQRVESGGGLVQAGGSLRLSCAASGRIFSLNAMGWYRQAPGKEREFVAAISTSSGTTYYADSVKGRFTISRDNAKNTVYLQMNSLKPEDTAVYYCAAKRPSRYYPYRWGFDYWGQGTQVTVSS

>  <polyreactivity (PSR sort gate)>
high polyreactivity

$$$$
>  <polymer-sequence>
QVHLVESGGGLVQAGGSLRLSCAASGSNFYPYAMGWYRQEPGKERELVAAIRWRGDRTYYADSVKGRFTISRDNAKKTVYLQMNSLKPEDTGVYYCAADLSGWSTHGSWGQATQVTVSS

>  <polyreactivity (PSR sort gate)>
high polyreactivity

$$$$

----------
test: yeast display, Sf9 membrane polyspecificity reagent, FACS + sequencing; frameworks hold sequencing errors

>  <polymer-sequence>
QVQLVESGGGLVQAGGSLRLSCAASGSIFYWYAMGWYRQAPGKERELVAAISSSNDSTDYADSVKGRFTISRDNAKNTVYLQMNSLKPEDTAVYYCAARYGTIQYDYWGQGTQVTVSS

>  <polyreactivity (PSR sort gate)>
low polyreactivity

$$$$
>  <polymer-sequence>
QVQLVESGGGLVQAGGSLRLSCAASGFTFRGYAMGWYRQAPGKERELVADITSGGSTYYADSVKGRFTISRDNAKNTVYLQMNSLKPEDTAVYYFATDILYWSDYAYEGYYTLDYYWGQGTQVTVSS

>  <polyreactivity (PSR sort gate)>
high polyreactivity

$$$$
>  <polymer-sequence>
QVQLVESGGGLVQAGGSLRLSCAASGRTLTRYTMGWYRQAPGKERELVATISRSGGNTHYADSVKGRFTISRDNAKNTVYLQMNSLKPEDTAVYYCNAVRYAIYGYDYWGQGTQVTVSS

>  <polyreactivity (PSR sort gate)>
high polyreactivity

$$$$
>  <polymer-sequence>
QVQLVESGGGLVQAGGSLRLSCAASGSTFRAYAMGWYRQAPGKEREFVADISWSGGSTYYADSVKGRFTISRDNAKNTVYLQMNSLKPEDTAVYYCAAEAAPLIIVTYDYWGQGTQVTVSS

>  <polyreactivity (PSR sort gate)>
low polyreactivity

$$$$
>  <polymer-sequence>
QVQLVESGGGLVQAGGSLRLSCAASGLIFPYYAMGWYRQAPGKERELVAAISRSGDSTYYADSVKGRFTISRDNAKITVYLQMNSLKPEDTAFYYCAAVLSYSYVRYNYWGQGTQVNVSS

>  <polyreactivity (PSR sort gate)>
high polyreactivity

$$$$

----------
assay: yeast display, Sf9 membrane polyspecificity reagent, FACS + sequencing; frameworks hold sequencing errors
result-type: polyreactivity (PSR sort gate)

>  <polymer-sequence>
QVQLVESGGGLVQAGGSLRLSCASSGSTFYWNGMGWYRQAPGKERDLVADITWSGTSTNYADSVKGRFTISRDNAKNTVYLQMNSLKPEDTAVYYCAVSDFGLRDSLTIYDEYDYWGQGTQVTVSS

>  <data-value>
high polyreactivity

$$$$
>  <polymer-sequence>
QVQLVESGGGLVQAGGSLRLSCAASGFTFRYYAMGWYRPAPGKERELVATISRGGSTNYADSVKGRFTISRDNAKNTVYLQMNSLKPEDTAVYYCNARIYKGYNYWGQGTQVTVSS

>  <data-value>
high polyreactivity

$$$$

----------
assay: yeast display, Sf9 membrane polyspecificity reagent, FACS + sequencing; frameworks hold sequencing errors

>  <polymer-sequence>
QVQLVESGGGLVQAGGSLRLSCAASGITFEDNAMGWYRQAPGKERELVATISDGGRTYYADSVKGRFTISRDNAKNTVYIQMNSLKPEDTAVYYCAAGYPYYHVYGYGYWGQGTQVTVSS

>  <polyreactivity (PSR sort gate)>
low polyreactivity

$$$$
>  <polymer-sequence>
QVQLVESGGGLVQAGGSLRLSCAASGRILPVYAMGWYRQAPGKERELVAAINDSGTNTNYADSVKGRFTISRDNAKNTVYLHMNSLKPEDTAVYYCAASSGPRQGYSYRPHKSYGSWGQGTQVTVSS

>  <polyreactivity (PSR sort gate)>
low polyreactivity

$$$$
>  <polymer-sequence>
QVQLVESEGGLVQAGGSLRLSCAASGFIFKYNDMGWYRQAPGKERELVAAIDVRTGLTYYADSVKGRFTISRDNAKTTVYLQMNSLKPEDPAVYYCNADYIQYAYDYWGQGTQVTVSS

>  <polyreactivity (PSR sort gate)>
high polyreactivity

$$$$
>  <polymer-sequence>
QVQLVESGGGLVQAGGSLRLSCAASGRIFKSYDIGWYRQAPGKEMELVSAISQSGGGTYYADSVKGRFTISRDNAKNTVYLQMNSLKPEDTAVYYCAAYRRVNRYQKIDNYWGQGTQVTVSS

>  <polyreactivity (PSR sort gate)>
high polyreactivity

$$$$
>  <polymer-sequence>
QVQRVESGGGLVQAGGSHRLSCAASGRIFSLNAMGWYRQAPGKERELVAAITTTGGTTYYADSVKGRFTISRDKAKNTVYLQMNSLKPEDTAVYYCAADYAPYNYLAYYFSGWLEYWGQGTQVTVSS

>  <polyreactivity (PSR sort gate)>
low polyreactivity

$$$$

----------
assay: yeast display, Sf9 membrane polyspecificity reagent, FACS + sequencing; frameworks hold sequencing errors

>  <polymer-sequence>
QVQLVESGGGLVQAGGSLRLSCAASGFTFVYYTMGWSSQAPGKERELVAAISSSGGRTSYADSVKGRFTISRDNEKNTVYLQMNSLKPEDTAVYYCAARAYPTWRTYYYWGQGTQVTVSS

>  <polyreactivity (PSR sort gate)>
high polyreactivity

$$$$
>  <polymer-sequence>
QVQLVESGGGLVQAGGSLRLSCAASGSIFEKNAMGWYRQEPGKEWELFAAISSSGGRTNYADSVKGRFTISRDNAKNTVYLHMNSLKPEDTAVYYCAAYRRGHRYTGYEYWGQGTQVTVSS

>  <polyreactivity (PSR sort gate)>
high polyreactivity

$$$$
>  <polymer-sequence>
QVQLVESGGGLVQEGGSLRLSCAAYGSTSYRYAMGWYRQAPGKERELVAASSSSGGSTYYADSVKGRFTISRDNEKNTVYLQMNSLKPEDSAVYYCAARFYSGPGGYTMYYWGQGTQVSVSS

>  <polyreactivity (PSR sort gate)>
high polyreactivity

$$$$
>  <polymer-sequence>
QVQLVESGGGLVQAGGSLRLSCAASGSIFSAYAMGWYIQAPGKERELVAGITGSGGRTYYADSVKGRFTISRDNAKNTVYLQMNSLKPEDTAVYYCLARSYYNWYDYWGQGTQVTVSS

>  <polyreactivity (PSR sort gate)>
high polyreactivity

$$$$
>  <polymer-sequence>
QVHLVESGGGLVQAGGSLRLSCAASGRTFYSYTMAWYRQAPGKERELVAAINRGGSTYYADSVKGRFTISRDKAKNTVYLQMNSLKEEDTAVYYFAVGYAHSSNRRYYYQKTHGYWGQGTQVTVSS

>  <polyreactivity (PSR sort gate)>
low polyreactivity

$$$$
>  <polymer-sequence>
QVQLVESGGGLVQAGGSLRLSCAASGRIFSYYAMGWYRQAPGKERELVATISGSGGSTYYADSVKGRFTNSRDNAKNNVYLQMNSLKPEDTAVYYCAARRSGRTRYYWGQGTQVTVSS

>  <polyreactivity (PSR sort gate)>
high polyreactivity

$$$$
>  <polymer-sequence>
QVQLVESGGGLVQAGGSLRLSCAASGSIFGINTMRWYRQAPGKEREFVASIRFNDGDTYYADSVKGRFTISRDNAKNTVYFQMNSLKPEDTAVYYFNVQTYVELRLDYWGQGTHVTVSS

>  <polyreactivity (PSR sort gate)>
low polyreactivity

$$$$
>  <polymer-sequence>
QVQLVESGGGLVQAGGSLRLSCAASGITFVKYAMGWYRQAPGKERELVAAISGSGGSTSYADSVKGRFTISRDNAKNTVYLQMNSLKPEDTAVYYCNKAIVRYPKTRDYWGQGTQVTVSS

>  <polyreactivity (PSR sort gate)>
low polyreactivity

$$$$
>  <polymer-sequence>
QVQLVETGGGLVQAGGSLRLSCDASGRIFGGYAMGWYRKAPGKERELVAAISASGGRTYYADSVKGRFTISRDNAKNTVYLQMNSLKPEDNAVYYCAASFRRTSLRWLGEYWGQGTQVTVSS

>  <polyreactivity (PSR sort gate)>
high polyreactivity

$$$$
>  <polymer-sequence>
QVQLQESGGGLVKAGGSLRLSCAASGNISNHNDMGWYRQAPGKESEFVAGITAGGITNYADSVKGRFTISRDNAKNTVYLQMNSLKPEDTAVYYCAAYPDYAKSYGYWGQGTQATVSS

>  <polyreactivity (PSR sort gate)>
low polyreactivity

$$$$
>  <polymer-sequence>
QVQLVESGGGLVQAGGSLRLSCAASGRIFGPYVMGWYRQAPGKEREFVAAISRRTGSTYYADSVKGRFTISRDNAKNTVYLQMNSLKPEDTAVYYCAATYYFSHVVGYGYWGQGTQVTVSS

>  <polyreactivity (PSR sort gate)>
high polyreactivity

$$$$
>  <polymer-sequence>
QVQLVESGGGLVQAGGSLRLSCAASGYTFSFNAMGWYRKAPGKEREMVAAINRGTSTNYADSVKGRFTISRDNAKNTVYLQMNSLKPEDTAVYYCAAGFRRRAGRYDLDYWGQGTQVTVSS

>  <polyreactivity (PSR sort gate)>
high polyreactivity

$$$$
>  <polymer-sequence>
QVQLVESGGGLVQAGGSLRLSCAASRSIFSIYAMGWYRQAPGKERELVAAITWGGGSTYYADSVKGRFTISRDNAKNTVYLQMNSLKPEDTALYYCAADSLTWYGTYYYWGQGTQVTVSS

>  <polyreactivity (PSR sort gate)>
high polyreactivity

$$$$
>  <polymer-sequence>
QVQLVESGGGLVQAGGSLRLSCAASGITFVRYAMGWYRQAPGKERELVATINWSGGSTYYADSVKGRFTISRDNAKNTVYLQMNSLKPEDTAVYYCAAYYVHPVYDVGHYDYWGQGTQVTVSS

>  <polyreactivity (PSR sort gate)>
low polyreactivity

$$$$
>  <polymer-sequence>
QVQLVESGGGLVQAGGSLRLSCAASGSASRGNAMGWYRQAPGKERELVATISQSGGNTFYADSVKGRFTISRDNAKNSVYLQMNSLKPEDTAVYYCAAGRYWFGWYDYWGQGTQVTVSS

>  <polyreactivity (PSR sort gate)>
high polyreactivity

$$$$
>  <polymer-sequence>
QVQLVESGGGLVQAGGILRLSCADSGRTFWYYAMGWYRQAHGKERELVAAITRGGRTNYADSVKGRFTISRDNAKNTVYLQMNSLKPEDTAVYYCAADYRYPAHSYGYWGQGTQVTVSS

>  <polyreactivity (PSR sort gate)>
high polyreactivity

$$$$
>  <polymer-sequence>
QVQLVESGGGLVQAGGSLRLSCADSGIISIFNVIGWYRQAPGKERELVASITGRGGSTFYADSVKGRFTISRDNAKNTVYLQMNILKPEDTAVYYCATDTGYTYPVTGLYDYWGQGTQVTVSS

>  <polyreactivity (PSR sort gate)>
low polyreactivity

$$$$
>  <polymer-sequence>
QVQLVESGGGLVQAGGSLRLSCAASGRTIGQNAMGWYRQAPGKERELVAAISASGSNTYYADSVKGRFTISRDNAKNTVYLQMNSLKPEDTAVYYCAKQVYRPGQQSRYDYWGQGTQVTVSS

>  <polyreactivity (PSR sort gate)>
low polyreactivity

$$$$
>  <polymer-sequence>
QDQLVESGGGLVQAGGSLRLSIAASVRIFYANAMGWYRQAPGQERELVAAISSGGSTYYADSVKGRFTISRDNAKNTVYLQMNSLKPEDTAVFYCAVYTHKKVRPEYDYWGQGTQVTVSS

>  <polyreactivity (PSR sort gate)>
low polyreactivity

$$$$
>  <polymer-sequence>
QVQIVESGGGLVQAGGSLRLSCAASGRTFAGNAMGWYRQAPGKERELVAGISSGGSTNNADSVKGRFTISRDNAKNTVYLQMNSLNPEDTAVYYCAKRYFRKGYPLFHYAYGYWGQGTQVTVSS

>  <polyreactivity (PSR sort gate)>
high polyreactivity

$$$$
>  <polymer-sequence>
QVQLVESGGGLVKAGGSLRLSCAASGFIFRTYAMGWYRQAPRKERELVAAITGRGGTTYYADSVKGRFTISRDHAKNTVYLQMNSLKAEDTAVYYCADRSRDYNYNPYDYWGLGTQVTVSS

>  <polyreactivity (PSR sort gate)>
high polyreactivity

$$$$

Measured values drawn from the nanobody polyreactivity screen of Harvey et al. (2022) for this set.
